system: V-C8 + BRCA2 (BRCA2-proficient hamster cells); test: normalised cell viability (fraction of plate median); higher = more viable cells (less toxic); conditions: treatment time: 3 days; 5 µM
Structures can show the parent of a compound that is named as a salt. Whole data set: some 1,300 compounds, median “normalised cell viability” near 1, cut for the lowest 2% near 0.15. Shown is part of a subset that was picked to be rich in the lowest values.
# note: boundary value 1 maps to not met; normalised cell viability below it maps to met

Input: Given COC(=O)Nc1nc2cc(C(=O)c3ccc(F)cc3)ccc2[nH]1 , is recorded normalised cell viability strictly lower than 1?
Output: met

Input: Given OC(CCCN1CCCCC1)(c1ccccc1)c1ccccc1 [Diphenidol hydrochloride] , is recorded normalised cell viability strictly lower than 1?
Output: not met

Input: Given COc1ccc2cc(CCC(C)=O)ccc2c1 , is recorded normalised cell viability strictly lower than 1?
Output: not met

Input: Given CC(C)(C)c1ccc(C(O)CCCN2CCC(C(O)(c3ccccc3)c3ccccc3)CC2)cc1 (centres undefined) , is recorded normalised cell viability strictly lower than 1?
Output: met

Input: Given O=C(Nc1ccc([N+](=O)[O-])cc1Cl)c1cc(Cl)ccc1O [Niclosamide] , is recorded normalised cell viability strictly lower than 1?
Output: met

Input: Given CN(Cc1cc(Br)cc(Br)c1N)C1CCCCC1 [Bromhexine hydrochloride] , is recorded normalised cell viability strictly lower than 1?
Output: met

Input: Given COC(=O)Nc1nc2cc(Sc3ccccc3)ccc2[nH]1 , is recorded normalised cell viability strictly lower than 1?
Output: met

Input: Given C[N+](C)(C)CCOC(N)=O , is recorded normalised cell viability strictly lower than 1?
Output: met

Input: Given C[C@H]1c2cccc(O)c2C(=O)C2=C(O)[C@]3(O)C(=O)C(C(N)=O)=C(O)[C@@H](N(C)C)[C@@H]3[C@@H](O)[C@@H]21 [Doxycycline hydrochloride] , is recorded normalised cell viability strictly lower than 1?
Output: met

Input: Given CN(C)CCC=C1c2ccccc2C=Cc2ccccc21 [Cyclobenzaprine hydrochloride] , is recorded normalised cell viability strictly lower than 1?
Output: not met

---

Kindly state normalised cell viability for each of the entries shown.
tested on: V-C8 + BRCA2 (BRCA2-proficient hamster cells); assay: normalised cell viability (fraction of plate median); higher = more viable cells (less toxic); settings: treatment time: 6 days; 5 µM
The full ranking holds about 1,300 compounds; the median of “normalised cell viability” is about 1, and the lowest 2% start at about 0.15. The sample holds the lowest values, similar compounds and a random draw of the others, so the mix is not that of the screen.
Give your answer as a number; write no unit.

Input: Item under review: CN1CCN(CCCN2c3ccccc3Sc3ccc(S(=O)(=O)N(C)C)cc32)CC1 [Thioproperazine dimesylate] . Reported normalised cell viability?
Output: 0.834

Input: Item under review: CC(C)(O/N=C(\C(=O)N[C@@H]1C(=O)N2C(C(=O)[O-])=C(C[n+]3ccccc3)CS[C@H]12)c1csc(N)n1)C(=O)O [Ceftazidime pentahydrate] . Reported normalised cell viability?
Output: 1

Input: Item under review: COc1ccc(C2CNC(=O)C2)cc1OC1CCCC1 (centres undefined) [Rolipram] . Reported normalised cell viability?
Output: 1.15

Input: Item under review: COc1cc([C@@H]2c3cc4c(cc3[C@@H](O[C@@H]3O[C@@H]5CO[C@@H](C)O[C@H]5[C@H](O)[C@H]3O)[C@H]3COC(=O)[C@H]23)OCO4)cc(OC)c1O [Etoposide] . Reported normalised cell viability?
Output: 0.15

Sourced from the supplement of paper PMC6609913
